Attribution: PubChem BioAssay (NCI)

Reported growth values follow for various molecules
test system: MALME-3M melanoma; test: NCI-60 one-dose screen, 48 h (100 = growth as untreated, 0 = no growth, -100 = all killed); details: 10 µM unless noted
The panel holds about 83,000 compounds, 20% with a hit somewhere; the sample as a whole holds those more often.
A number alone suffices; assume %.

# molecule, quantityKind, unitsLabel, reportedResult
data = [
    ("COC(=O)C1=C(C(=O)ONCCN(C)C)C2C=CC1(C(Cc1ccccc1)Nc1ccc(F)cc1)O2 (stereo not given)", "growth", "%", -9.2),
    ("COc1ccc(C(O)c2cc3c(N)c(C(=O)Nc4ccc(Br)cc4)sc3nc2C)cc1 (stereo not given)", "growth", "%", 24.8),
    ("Cn1/c(=N/NC(N)=S)ccc2ccccc21", "growth", "%", 90.8),
    ("COc1cc(NCC(C)(O)CN(CC(C)C)CC(C)C)c2nc(C)ccc2c1 (stereo not given)", "growth", "%", 94),
]

The reported growth of the molecule Cc1ccc(C2CC(c3cccc(Nc4ccncc4)c3)=NN2c2ccccc2)cc1 (stereo not given) was -92.8

The reported growth of the molecule COc1ccc(-c2nc3sccn3c2/C=C/C(=O)c2cc(OC)c(OC)c(OC)c2)cc1 was 53.3

The reported growth of the molecule Nc1c(C(=O)Nc2cccc3ccncc23)sc2nc3c(cc12)C(=O)CCC3 was 63.7

The reported growth of the molecule COC(=O)C(c1ccccc1)C(CC(=O)c1ccccc1)c1ccccc1 (stereo not given) was 69.7

The reported growth of the molecule Cc1ccc2[nH]c(=S)n(-c3ccc(S(=O)(=O)Nc4ccc(Cl)nn4)cc3)c(=O)c2c1 was 101

The reported growth of the molecule CC1(C)CCCN1CCCN1c2ccccc2Sc2ccc(Cl)cc21 was 67.2

The reported growth of the molecule O=C(CN1CCOCC1)Nc1ccc2ncnc(Nc3ccc(OCc4cccc(F)c4)c(Cl)c3)c2c1 was 83.7

The reported growth of the molecule C=C1C(=O)O[C@H]2[C@H]1CC/C(COC(=O)CCCCCC(=O)OC/C1=C/CC[C@@]3(C)O[C@H]3[C@H]3OC(=O)C(=C)[C@@H]3CC1)=C\CC[C@@]1(C)O[C@@H]21 was -11.1

The reported growth of the molecule CN1CCN(c2ccc(NC3=C(Cl)C(=O)c4ncccc4C3=O)cc2C#N)CC1 was -69.4

The reported growth of the molecule O=C(N/N=C/c1ccncc1)c1ccccc1Nc1cccc(C(F)(F)F)c1 was 92.8

The reported growth of the molecule CC1CCN(C(=O)OCc2nc3nc(Cl)nc(N4CCOCC4)c3[nH]2)CC1 was -78.9

The reported growth of the molecule COc1cccc(C(Cc2ccccc2)Nc2ccccc2)c1OC (stereo not given) was 98.9

The reported growth of the molecule CCCc1cc2c(cc1Br)OCO2 was 117

The reported growth of the molecule Clc1nc(Cl)c2ncn(CC3(Cn4cnc5c(Cl)nc(Cl)nc54)COC3)c2n1 was -69.8

The reported growth of the molecule COc1ccc(Cc2nc3cc(OC)c(OC)cc3c(=O)[nH]2)cc1 was 273

The reported growth of the molecule CC(=O)O[C@]1(C(C)=O)CC[C@H]2[C@@H]3C=C(Cl)C4=CC(=O)CC[C@]4(C)[C@H]3CC[C@@]21C was 125
